Target: T1, human GARP-TGF-β1 complex (recombinant complex of human GARP and latent human TGF-β1) (human, UniProt Q14392 20-627; P01137 30-278; P01137 279-390)
T1 construct: also called huGARP-TGF-β1; hGARP-TGF-β1
T1 sequence (Q14392 20-627 limits assumed, chain 1 of 3): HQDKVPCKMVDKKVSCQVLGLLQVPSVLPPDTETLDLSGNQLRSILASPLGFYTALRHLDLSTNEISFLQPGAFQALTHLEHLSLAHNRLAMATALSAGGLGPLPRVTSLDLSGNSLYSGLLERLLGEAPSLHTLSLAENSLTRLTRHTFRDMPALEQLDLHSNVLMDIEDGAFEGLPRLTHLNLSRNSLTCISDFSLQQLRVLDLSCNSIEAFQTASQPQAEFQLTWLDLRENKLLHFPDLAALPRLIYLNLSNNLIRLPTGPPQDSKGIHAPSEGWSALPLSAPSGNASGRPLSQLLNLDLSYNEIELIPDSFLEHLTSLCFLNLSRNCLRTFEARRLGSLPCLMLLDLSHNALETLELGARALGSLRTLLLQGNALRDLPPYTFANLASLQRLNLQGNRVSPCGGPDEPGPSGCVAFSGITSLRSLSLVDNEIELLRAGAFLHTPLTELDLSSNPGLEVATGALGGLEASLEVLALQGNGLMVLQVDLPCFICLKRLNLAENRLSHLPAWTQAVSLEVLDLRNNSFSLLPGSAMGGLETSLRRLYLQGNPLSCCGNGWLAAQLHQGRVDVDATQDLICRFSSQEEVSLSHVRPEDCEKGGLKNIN
T1 sequence (P01137 30-278 limits assumed, chain 2 of 3): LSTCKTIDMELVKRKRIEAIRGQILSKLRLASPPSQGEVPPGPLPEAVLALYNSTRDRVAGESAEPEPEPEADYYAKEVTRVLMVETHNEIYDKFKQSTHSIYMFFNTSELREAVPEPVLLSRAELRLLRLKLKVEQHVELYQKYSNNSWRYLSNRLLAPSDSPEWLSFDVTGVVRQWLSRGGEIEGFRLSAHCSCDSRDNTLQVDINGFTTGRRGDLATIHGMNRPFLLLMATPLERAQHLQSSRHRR
T1 sequence (P01137 279-390 limits assumed, chain 3 of 3): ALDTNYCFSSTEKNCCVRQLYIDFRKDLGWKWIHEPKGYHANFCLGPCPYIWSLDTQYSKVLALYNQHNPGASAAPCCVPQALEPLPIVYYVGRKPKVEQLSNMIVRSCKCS
Assay: SPR, IgG1 on human GARP-TGF-β1 complex
Record form. Attribute: Kd. Fill in for each entry.
Give bare numbers, in nM.

- Binder: "39A5 human IgG1 (antibody, V domains shown, Full human IgG1, made in HEK 293E cells) VH: QVQLVQPGAELRNPGASVKVSCKASGYRFTSYYIDWVRQAPGQGLEWMGRIDPEDGGTKYAQKFQGRVTFTRDTSTSTVYMELSSLRSEDTAVYYCARNEWETVVVGDLMYEYEYWGQGTLVT VL: DIQMTQSPSSLSASLGDRVTITCQASQSISSYLAWYQQKPGQAPKLLIYGASRLKTGVPSRFSGSGSGTDFTLTISSLQPEDAATYYCQQYASVPVTFGQGTKVEIK"
  Kd / nM: 0.298

Attention now turns to another entry.
// query Consider the binder shown here: 38F2 human IgG1 (antibody, V domains shown, Full human IgG1, made in HEK 293E cells) VH: QVQLVQPGAELKKPGASVKVSCKASGYRFTSYYIDWVRQAPGQGLEWMGRIDPEDAGTKYAQKFQGRVTFTADTSTSTVYVELSSLRSEDTAVYYCARNEWETVVVGDLTYEYEYWGQGTLVTVSS VL: DIQMTQSPSSLSASVGDRVTITCQASQSISSYLAWYQQKPGKAPNLLIYGASRLKTEVPSRFSGSGSGTDFTLISGLEPEDAGTYYCQQYASVPVTFGQGTKVEIK What is its recorded Kd?
// result 0.48

Data provenance: patent US20210324061A1
